Measured TGI values are reported for all entries that follow.
- Test system: HCT-116 colon
- procedure-summary: NCI tumour cell line growth inhibition, 48 h
Numbers only here, please. The scale is µM.

The following compounds have reported results that may help.
                               input_smiles   val
0  N#Cc1c(NC(=O)c2cccc(C(F)(F)F)c2)sc2c1CCC(=O)C2  1.56
1  CCOc1ccc(S(=O)(=O)/N=C2\C=C(SCC(=O)O)C(=O)c3ccccc32)cc1  10.3
2          COc1ccc(/C=C/C=C(/C#N)C(N)=S)cc1    31

Q: Quick check: TGI of O=C1CC(=O)N(c2ccccc2)N1/C(=C/c1ccccc1)c1ccccc1 ?
Ans: 32

###

- Tested on: OVCAR-4 ovarian
- procedure-summary: NCI tumour cell line growth inhibition, 48 h
Quick list: TGI per entry.

Q: Quick check: TGI on OVCAR-4 ovarian, item C#Cc1ccc(-n2c(/C=C/c3ccc(Cl)c(F)c3)nc3ncccc3c2=O)cc1 ?
Ans: 1.03 µM

Q: Lab request: please report TGI under test system OVCAR-4 ovarian for COc1ccc(/C(=C/n2ccnc2)C(=O)c2ccc(OC)c(OC)c2)cc1
Ans: > 100 µM

Q: Notebook: pull reported TGI for OVCAR-4 ovarian, entry CC12CC(c3ccccc3O1)C(C(=O)Nc1ccc(F)cc1)C(=O)N2 (configuration not stated)
Ans: > 100 µM

Q: OVCAR-4 ovarian / TGI / CCC(C)C1NC(=O)c2nc(oc2-c2ccccc2)-c2csc(n2)-c2csc(n2)-c2nc(oc2C)-c2coc(n2)CNC(=O)C(C(C)CC)NC1=O (configuration not stated) : value?
Ans: 0.0982 µM

Q: Notebook entry, OVCAR-4 ovarian assay: TGI of O=C(Nc1nc2ccccc2s1)OCC(F)(F)F = ?
Ans: > 100 µM

Q: Write down the reported TGI of c1ccc([P+](CCNCCNCC[P+](c2ccccc2)(c2ccccc2)c2ccccc2)(c2ccccc2)c2ccccc2)cc1 , test system: OVCAR-4 ovarian.
Ans: > 100 µM

Q: Give TGI (OVCAR-4 ovarian) of the following compound: CCN1CCN(c2nc(NCCCNc3ccnc4cc(Cl)ccc34)c3ccccc3n2)CC1
Ans: 9.57 µM

Q: Form entry - test system: OVCAR-4 ovarian; read-out: TGI; compound: CCCN=C1CC(C)Nc2ccccc2N1 (configuration not stated)
Ans: > 100 µM

Q: Fill in the recorded TGI for this compound, with OVCAR-4 ovarian as test system: CC(=O)Nc1cccc(-n2c(=O)n(C3CC3)c(=O)c3c(Nc4ccc(I)cc4F)n(C)c(=O)c(C)c32)c1
Ans: > 100 µM

Q: Record lookup: for OVCAR-4 ovarian, what TGI belongs to CC1(C)N=C(N)N=C(N)N1c1ccc(CCCCc2ccc(S(=O)(=O)F)cc2)cc1 ?
Ans: > 86.5 µM

Q: Reported TGI for OVCAR-4 ovarian, given CCOC(=O)c1sc2nc(SC)nc3c2c1N=CN3c1ccc(Br)cc1 ?
Ans: > 100 µM

Q: Return TGI measured with OVCAR-4 ovarian given this compound: C=CC(=O)N[C@H]1C=C(C)c2c(-c3cnc4ccccc4c3)c3c(N)ncnc3n2C1
Ans: > 100 µM

###

- Test system: RPMI-8226 leukemia
- procedure-summary: NCI tumour cell line growth inhibition, 48 h
Where a SMILES comes first, the peptide text is derived from it. The star is where a group is joined. Boc = CC(C)(C)OC(=O)*; OSu = O=C1CCC(=O)N1O*
# key: entry, value: TGI

Previously resolved entries follow.
molecule	target	val
Cc1ccc(-c2c(N)nc(NC#N)nc2CCC(=O)Nc2ccccc2[N+](=O)[O-])cc1	RPMI-8226 leukemia	> 100 µM
O=c1[nH]cnc2c(C3OC(CO)C(O)C3O)c[nH]c12 (centres undefined)	RPMI-8226 leukemia	> 100 µM
O=C(/C=C/c1ccc(Cl)cc1)c1ccc(Cl)cc1Cl	RPMI-8226 leukemia	11 µM
CC(C)(C)OC(=O)NC(Cc1ccc(O)cc1)C(=O)NC(CCCCN)C(=O)NC(Cc1ccc(O)cc1)C(=O)NC(CCCCN)C(=O)ON1C(=O)CCC1=O (centres undefined) (Boc-YKYK-OSu; configuration not given here)	RPMI-8226 leukemia	> 100 µM
Fc1cccc(COc2ccc(Nc3ncncc3C#Cc3ccccc3)cc2Cl)c1	RPMI-8226 leukemia	> 25 µM

Q: Tell me the measured TGI of Cc1ccc2c(C(C[N+](=O)[O-])c3cccs3)c(-c3ccccc3)[nH]c2c1 (centres undefined) , please.
Ans: 23.7 µM

Q: What value of TGI has been recorded for this entry: c1sc(NC2=NCCO2)c2c1CCCC2
Ans: > 100 µM

Q: Find the recorded TGI belonging to CC(=O)C(CN1CCCCC1)C(c1ccccc1)c1c(O)c2ccccc2oc1=O (centres undefined) and report it.
Ans: > 100 µM

Q: Bench note: what TGI did CSC1=Nc2ccccc2N(C)c2c1c(-c1ccccc1)nn2C show?
Ans: 37.1 µM

Q: Given COC(=O)C(=O)CC(=O)CCn1ncc(Cl)c(Cl)c1=O , state its recorded TGI.
Ans: 52.6 µM

Source listed as PubChem BioAssay (NCI).
